Target Or Test System: T1, human MIP-1-alpha (human, UniProt P10147 24-92, limits assumed)
T1 construct: also called hMIP-1-alpha
T1 sequence (looked up): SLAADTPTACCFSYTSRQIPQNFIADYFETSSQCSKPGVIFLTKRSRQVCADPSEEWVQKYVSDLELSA
Protocol Description: ELISA, coated antigen
Quantity Name: ELISA OD (OD450)
API: value field is a number in OD450; no unit string.

anti-MCP-1 mAb 3.2 (antibody, V domains shown, also called 3.2 (neat)) VH: QVQLVQSGAEVKKPGASVKVSCKVSGYTLSELSMHWVRQAPGKGLEWMGGFDPEDGEIIHAQKFQGRVTMTEDTSTDTAYMELSSLRSEDTAVYYCATGDFWSGYYLDWWGQGTLVTVSS VL: EIVMMQSPATLSVSPGERATLSCRASQSVNSNLAWYQQKPGQAPRLLINGASTRATGIPARFSGSGSGTEFTLTISSLQSEDFAIYYCQQYNDWPTFTFGGGTKVEINR = 0.041

Let us examine a further case.
### Prompt // lookup ELISA OD for anti-MCP-1 mAb 1.4.1 (antibody, V domains shown) VH: QSGPGLVKPSQTLSLTCAISGDSVSSNSAAWNWIRQSPSRGLEWLGRTYYRSKWYSDHAVSVRSRITIYPDTSKNQFSLQLNSVTPEDTAVYYCARDRISGTYVGMDVWGQGTTVTVSS VL: DIGMTQTPLSLSVTPGQPASISCKSSQSLLYSDGKTYLYWYLQKPGQPPQHLIYEVSNRFSGVPDRFSGSGSGTDFTLKISRVEADDVGVYYCMQTIHLPLTFGGGTKVEIQR
### Response 0.041
